Ref: PubChem BioAssay AID839

- measurement protocol: yeast growth inhibition, transport mutant vs wild type, confirmation, post-Golgi transport mutant, OD600 growth rate (AID 839)
- measurement parameters: yeast transport mutant vs control strains, measured here: wild type growth inhibition 40 uM, at 40 µM, stronger effect = higher value
endpoint label: growth inhibition (%)
Write the value in % as a bare number.

Entry Clc1cc(Br)ccc1OCCOCCN1CCOCC1 — recorded growth inhibition = 3.79

Entry O=C(COc1ccc(Cl)cc1Cl)NCCCN1CCOCC1 — recorded growth inhibition = 6.18

Entry Cc1ccc(Cl)c(OCCCCN(C)Cc2ccccc2)c1 — recorded growth inhibition = 22.1

Entry CC1CC(C)CN(CCOc2ccc(Cl)cc2Cl)C1 (stereo not drawn) — recorded growth inhibition = 14.7

Entry O=C(OCn1ncc(Cl)c(Cl)c1=O)c1ccc(C(F)(F)F)cc1 — recorded growth inhibition = 16.2

Entry CC(C)c1ccc(C(=O)CSc2n[nH]c(-c3ccncc3)n2)cc1 — recorded growth inhibition = 13.6

Entry Cc1ccc(OCC(O)CN2CCN(Cc3ccc4c(c3)OCO4)CC2)c(C)c1 (stereo not drawn) — recorded growth inhibition = 10

Entry CC1CN(CCCCOc2ccc(C(C)C)cc2)CC(C)O1 (stereo not drawn) — recorded growth inhibition = 7.83

Entry CC1CN(CC(O)COc2ccc(C(C)C)cc2)CC(C)O1 (stereo not drawn) — recorded growth inhibition = -1.47

Entry C=C(C)C1CC=C(CN2CC(C)OC(C)C2)CC1 (stereo not drawn) — recorded growth inhibition = 1.76

Entry O=C(COc1ccc(Br)cc1F)NC1CCN(Cc2ccccc2)CC1 — recorded growth inhibition = 5.41

Entry Cc1ccc(C(=O)c2c(NC(=O)c3ccncc3)sc3c2CCCC3)cc1 — recorded growth inhibition = 18.9

Entry CCCCCOc1ccc(Cl)cc1CN1CCOCC1 — recorded growth inhibition = -7.6

====

- measurement protocol: yeast growth inhibition, transport mutant vs wild type, confirmation, post-Golgi transport mutant, OD600 growth rate (AID 839)
- measurement parameters: yeast transport mutant vs control strains, measured here: wild type growth inhibition 40 uM, at 40 µM, stronger effect = higher value
Could you please classify the records by growth inhibition using these ranges: low = under 7%, medium = from 7% up to 10%, high = 10% and over

Q: Class (by measured growth inhibition) for CCCCCCOc1ccc(CN2CCN(CCO)CC2)cc1
Result: high

Q: Class (by measured growth inhibition) for CC1CCCN(CCOCCOc2ccc(Cl)cc2Br)C1 (stereo unspecified)
Result: high

Q: Class (by measured growth inhibition) for CCOC(=O)COc1ccccc1C1Nc2ccccc2C(=O)N1c1cccc(Cl)c1 (stereo unspecified)
Result: high

Q: Class (by measured growth inhibition) for Cc1nc(NC(=O)c2ccccc2)sc1-c1csc(NCc2ccccc2)n1
Result: high

Q: Class (by measured growth inhibition) for Cc1ccc(CN2CCN(/N=C/c3cc(Br)ccc3O)CC2)cc1
Result: medium

Q: Class (by measured growth inhibition) for Clc1ccc(Cn2nnc(-c3ccc(CN4CCOCC4)cc3)n2)cc1
Result: high

Q: Class (by measured growth inhibition) for N=c1c2c(-c3ccccc3)c(-c3ccccc3)n(Cc3ccco3)c2ncn1Cc1ccccc1
Result: high

Q: Class (by measured growth inhibition) for O=C(C1COc2ccccc2O1)N1CCN(Cc2ccc3c(c2)OCO3)CC1 (stereo unspecified)
Result: low

Q: Class (by measured growth inhibition) for C=C(C)C1CC=C(CN2CCC(C(=O)OCC)CC2)CC1 (stereo unspecified)
Result: low

Q: Class (by measured growth inhibition) for Cc1cc(C(C)(C)C)ccc1OCCN1CCCC1
Result: medium

Q: Class (by measured growth inhibition) for O=S(=O)(c1ccc(Cl)cc1)N1CCN(C2CCN(Cc3ccccc3)CC2)CC1
Result: low
